Reference for the values: ChEMBL document CHEMBL3988442

Percent Effect values for the compounds below.
tested on: Wolbachia pipientis; experiment: Anti-Wolbachia Cell-Based Screen; assay type: functional; parameters: scale not given: in the data most compounds retested in dose-response had high values; conditions: 5 µM
The campaign covered roughly 48,000 compounds. About 13,000 (27%) showed an effect of 50% or more. Some of the results follow.
assay-endpoint: Percent Effect

{"compound": "CN(C)Cc1cnc(CC2CCN(CCc3ccccc3)CC2)cn1", "assay-system": "Wolbachia pipientis", "assay-endpoint": "Percent Effect", "result": "90.66%"}
{"compound": "Cc1ccc(C)c2c(O)cc(CN3CCNC(=O)C3C)nc12 (stereo unspecified)", "assay-system": "Wolbachia pipientis", "assay-endpoint": "Percent Effect", "result": "-11.58%"}
{"compound": "CCn1nc2c(cc1=O)CN(CCOc1ccc(C#N)cc1)CC2", "assay-system": "Wolbachia pipientis", "assay-endpoint": "Percent Effect", "result": "2.029%"}
{"compound": "CSc1ccc(OCCN2CCNC(=O)CC2)cc1", "assay-system": "Wolbachia pipientis", "assay-endpoint": "Percent Effect", "result": "106.2%"}
{"compound": "CCN(CC)CCCN1CCN(c2nc(C)cnc2C)CC1", "assay-system": "Wolbachia pipientis", "assay-endpoint": "Percent Effect", "result": "20.67%"}
{"compound": "Cc1cnn(C2CN(Cc3nc(-c4ccsc4)no3)C2)c1", "assay-system": "Wolbachia pipientis", "assay-endpoint": "Percent Effect", "result": "107.2%"}
{"compound": "CCNC(=O)C1CCN(c2cc(CC)nc3ccnn23)C1 (stereo unspecified)", "assay-system": "Wolbachia pipientis", "assay-endpoint": "Percent Effect", "result": "-6.245%"}
{"compound": "CSCc1ccc(C(=O)N2CCN(CC(C)O)CC2)cc1 (stereo unspecified)", "assay-system": "Wolbachia pipientis", "assay-endpoint": "Percent Effect", "result": "99.74%"}
{"compound": "Cn1cnc2c1CCN(Cc1nc(-c3ccsc3)no1)C2", "assay-system": "Wolbachia pipientis", "assay-endpoint": "Percent Effect", "result": "-4.856%"}
{"compound": "N#CCCN(Cc1ccco1)C(=O)Cc1ccc(-n2cnnn2)cc1", "assay-system": "Wolbachia pipientis", "assay-endpoint": "Percent Effect", "result": "-12.81%"}
{"compound": "Cc1cnn(CC(C)NCc2csc(-c3ccsc3)n2)c1 (stereo unspecified)", "assay-system": "Wolbachia pipientis", "assay-endpoint": "Percent Effect", "result": "2.803%"}
{"compound": "CC1C(=O)NCCN1CCOc1ccc(C#N)cc1 (stereo unspecified)", "assay-system": "Wolbachia pipientis", "assay-endpoint": "Percent Effect", "result": "92.79%"}
{"compound": "CSc1ccc(OCCN2CCNC(=O)C2C)cc1 (stereo unspecified)", "assay-system": "Wolbachia pipientis", "assay-endpoint": "Percent Effect", "result": "111.5%"}
{"compound": "Cc1ncc(CN(C)C2CCCN(CCc3ccccc3)C2)n1C (stereo unspecified)", "assay-system": "Wolbachia pipientis", "assay-endpoint": "Percent Effect", "result": "-4.655%"}
{"compound": "COc1ccc(-c2cc(CN)ccc2F)c(OC)c1OC", "assay-system": "Wolbachia pipientis", "assay-endpoint": "Percent Effect", "result": "2.502%"}
{"compound": "C1CCC(c2nnc3sc(C4CCCO4)nn23)C1 (stereo unspecified)", "assay-system": "Wolbachia pipientis", "assay-endpoint": "Percent Effect", "result": "107.8%"}
{"compound": "c1coc(-c2noc(CN3CC(n4cccn4)C3)n2)c1", "assay-system": "Wolbachia pipientis", "assay-endpoint": "Percent Effect", "result": "-9.344%"}
{"compound": "CC(O)CN1CCN(C(=O)c2ccc(Br)o2)CC1 (stereo unspecified)", "assay-system": "Wolbachia pipientis", "assay-endpoint": "Percent Effect", "result": "-12.79%"}
{"compound": "c1cnn(C2CN(Cc3nc(-c4ccsc4)no3)C2)c1", "assay-system": "Wolbachia pipientis", "assay-endpoint": "Percent Effect", "result": "-8.892%"}
{"compound": "Cc1cccc(-c2noc(CN3CC(n4cccn4)C3)n2)c1", "assay-system": "Wolbachia pipientis", "assay-endpoint": "Percent Effect", "result": "120.1%"}
{"compound": "Cc1cnc(CN(C)C2CCN(CCc3ccccn3)CC2)cn1", "assay-system": "Wolbachia pipientis", "assay-endpoint": "Percent Effect", "result": "10.61%"}
{"compound": "CCn1c(CN(C)C)nnc1C1CCN(Cc2cccc(OC)c2)CC1", "assay-system": "Wolbachia pipientis", "assay-endpoint": "Percent Effect", "result": "12.38%"}
{"compound": "COc1ccc(-c2noc(CN3CC(n4cccn4)C3)n2)c(OC)c1", "assay-system": "Wolbachia pipientis", "assay-endpoint": "Percent Effect", "result": "7.442%"}
{"compound": "N#CCCCS(=O)(=O)N1CCCC1CC(=O)c1cccs1 (stereo unspecified)", "assay-system": "Wolbachia pipientis", "assay-endpoint": "Percent Effect", "result": "-18.29%"}
{"compound": "CSCc1cccc(C(=O)N2CCN(CC(C)O)CC2)c1 (stereo unspecified)", "assay-system": "Wolbachia pipientis", "assay-endpoint": "Percent Effect", "result": "-7.975%"}
{"compound": "CCc1cc(=O)[nH]c2nnc(SCC(=O)NC(C)C)n12", "assay-system": "Wolbachia pipientis", "assay-endpoint": "Percent Effect", "result": "9.216%"}
